Origin of values: ChEMBL document CHEMBL3611976

# target_system: Prostaglandin G/H synthase 1 (Ovis aries)
# experiment_notes: Inhibition of ram seminal vesicles COX-1 using arachidonic acid as substrate at 50 ug/ml preincubated for 5 mins followed by substrate addition after 20 mins by competitive PGE2 EIA method
Activity calls are given as the source filed them. The calls are words filed in the database; no cut-off is given here.
measurement_kind: inhibition

1) CC1=CC(C(C)C)NC(=S)N1 (racemic): inactive
2) CC1=CC(c2ccccc2)NC(=S)N1 (stereo unspecified): inactive
3) CC1=CC(c2ccc(C(F)(F)F)cc2)NC(=S)N1 (racemic): 0.92%
4) CC1=CC(c2ccc(Cl)cc2)NC(=S)N1 (racemic): 10.3%
5) CC1=CC(c2ccc(Cl)cc2Cl)NC(=S)N1 (racemic): inactive
6) COc1ccc(C2C=C(C)NC(=S)N2)cc1 (racemic): 33.2%
7) CC1=CC(c2ccc(Br)cc2)NC(=S)N1 (racemic): 15.4%
8) CC1=CC(c2ccc([N+](=O)[O-])cc2)NC(=S)N1 (racemic): 29.8%
9) CC1=CC(c2ccccc2[N+](=O)[O-])NC(=S)N1 (racemic): 53%
10) CC1=CC(c2ccccc2Cl)NC(=S)N1 (racemic): 3.06%
11) CC1=CC(c2ccc(F)cc2)NC(=S)N1 (racemic): inactive
